Field: Ratio Ki. Provide a value for each of the compounds that follow.
Organism: Sus scrofa
RUN_DESCRIPTION: Selectivity ratio of Ki for dopamine D2 like receptor in pig striatal homogenates to Ki for dopamine D1 like receptor in pig striatal homogenates
Format: tissue-based
Numbers only.

Below, each entry is followed by its recorded Ratio Ki result.
input: Name the recorded Ratio Ki for CCCN1C[C@H](c2ccc(O)cc2)C[C@@H]2c3cc(O)c(O)cc3CC[C@H]21 (relative stereo) .
output: 61

input: Name the recorded Ratio Ki for Cc1ccc([C@H]2CN[C@@H]3CCc4cc(O)c(O)cc4[C@H]3C2)cc1 (racemic) .
output: 14

Below are some compounds; for each one, tell me its Ratio Ki.
1. Oc1cccc([C@H]2CN[C@@H]3CCc4cc(O)c(O)cc4[C@H]3C2)c1 (racemic)
2. Oc1cc2c(cc1O)[C@H]1C[C@@H](c3ccccc3)CN[C@@H]1CC2 (racemic)
3. Oc1cc2c(cc1O)[C@H]1C[C@@H](c3ccc(C(F)(F)F)cc3)CN[C@@H]1CC2 (racemic)
4. Oc1ccc([C@H]2CN[C@@H]3CCc4cc(O)c(O)cc4[C@H]3C2)cc1 (racemic)

output:
20
31
16
34

###

RUN_DESCRIPTION: Displacement of [3H]-N-methylspiperone from dopamine D2 like receptor in pig striatal homogenates after 30 mins by scintillation counting
Assay type: tissue-based, Sus scrofa
METRIC_NAME: Ki (nM)
Give bare numbers, in nM.

Below, each entry is followed by its recorded Ki result.
input: Name the recorded Ki for Oc1ccc2c(c1O)C[C@@H](c1ccccc1)[C@@H]1CCNC[C@@H]21 .
output: 180

input: Name the recorded Ki for Oc1cc2c(cc1O)[C@H]1c3ccccc3CN[C@@H]1CC2 (relative stereo) [DIHYDREXIDINE] .
output: 200

Below are some compounds; for each one, tell me its Ki.
1. Oc1cc2c(cc1O)[C@H]1C[C@@H](c3ccc(C(F)(F)F)cc3)CN[C@@H]1CC2 (racemic)
2. Oc1cc2c(cc1O)[C@H]1C[C@@H](c3ccccc3)CN[C@@H]1CC2 (racemic)
3. CCCN1C[C@H](c2ccc(O)cc2)C[C@@H]2c3cc(O)c(O)cc3CC[C@H]21 (relative stereo)
4. Cc1ccc([C@H]2CN[C@@H]3CCc4cc(O)c(O)cc4[C@H]3C2)cc1 (racemic)
5. Oc1cccc([C@H]2CN[C@@H]3CCc4cc(O)c(O)cc4[C@H]3C2)c1 (racemic)
6. Oc1ccc([C@H]2CN[C@@H]3CCc4cc(O)c(O)cc4[C@H]3C2)cc1 (racemic)

output:
1. 150
2. 30
3. 10
4. 56
5. 29
6. 14

###

MEASURED_TARGET: UniProt:P21728
Sequence (P21728 whole entry): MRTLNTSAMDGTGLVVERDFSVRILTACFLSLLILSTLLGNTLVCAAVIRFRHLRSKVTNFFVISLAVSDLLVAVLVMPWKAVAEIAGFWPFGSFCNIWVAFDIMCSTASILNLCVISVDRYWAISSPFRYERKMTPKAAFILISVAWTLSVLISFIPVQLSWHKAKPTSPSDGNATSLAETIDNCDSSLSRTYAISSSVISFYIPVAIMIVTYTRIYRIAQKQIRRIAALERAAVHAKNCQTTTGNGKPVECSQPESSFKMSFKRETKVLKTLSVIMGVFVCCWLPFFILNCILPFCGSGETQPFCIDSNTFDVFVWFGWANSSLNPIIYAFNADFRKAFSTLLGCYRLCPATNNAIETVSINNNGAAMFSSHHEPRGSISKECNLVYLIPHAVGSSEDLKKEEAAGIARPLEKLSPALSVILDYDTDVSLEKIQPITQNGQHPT
RUN_DESCRIPTION: Displacement of [3H]-SCH-23390 from human dopamine D1 receptor expressed in HEK293 cells after 30 mins by scintillation counting
Field: pKi. Provide a value for each of the compounds that follow.
Numbers only, as −log10 of the molar value.

Below, each entry is followed by its recorded pKi result.
input: Name the recorded pKi for Oc1ccc2c(c1O)C[C@@H](c1ccccc1)[C@@H]1CCNC[C@@H]21 .
output: 7.33

input: Name the recorded pKi for Oc1ccc([C@H]2CN[C@@H]3CCc4cc(O)c(O)cc4[C@H]3C2)cc1 (racemic) .
output: 6.26

Continuing:
input: Name the recorded pKi for CCCN1C[C@H](c2ccc(O)cc2)C[C@@H]2c3cc(O)c(O)cc3CC[C@H]21 (relative stereo) .
output: 6.04

###

RUN_DESCRIPTION: Displacement of [3H]-SCH-23390 from dopamine D1 like receptor in pig striatal homogenates after 30 mins by scintillation counting
Type: tissue-based, Sus scrofa
METRIC_NAME: log10 of Ki (log10 of the value in nM)
Record value = log10 of Ki given in nM.

Below, each entry is followed by its recorded log10 of Ki result.
input: Name the recorded log10 of Ki for Oc1cc2c(cc1O)[C@H]1C[C@@H](c3ccc(C(F)(F)F)cc3)CN[C@@H]1CC2 (racemic) .
output: 3.37

input: Name the recorded log10 of Ki for CN1CCc2cc(Cl)c(O)cc2[C@@H](c2ccccc2)C1.O=C(O)/C(O)=C(/O)C(=O)O .
output: -0.51

input: Name the recorded log10 of Ki for Oc1cccc([C@H]2CN[C@@H]3CCc4cc(O)c(O)cc4[C@H]3C2)c1 (racemic) .
output: 2.76

Below are some molecules; for each one, tell me its log10 of Ki.
1. Oc1ccc2c(c1O)C[C@@H](c1ccccc1)[C@@H]1CCNC[C@@H]21
2. Oc1ccc([C@H]2CN[C@@H]3CCc4cc(O)c(O)cc4[C@H]3C2)cc1 (racemic)
3. Oc1cc2c(cc1O)[C@H]1C[C@@H](c3ccccc3)CN[C@@H]1CC2 (racemic)
4. Cc1ccc([C@H]2CN[C@@H]3CCc4cc(O)c(O)cc4[C@H]3C2)cc1 (racemic)
5. CCCN1C[C@H](c2ccc(O)cc2)C[C@@H]2c3cc(O)c(O)cc3CC[C@H]21 (relative stereo)

output:
1: 0.91; 2: 2.69; 3: 2.97; 4: 2.91; 5: 2.80

###

MEASURED_TARGET: D(3) dopamine receptor (Homo sapiens)
Sequence (P35462 whole entry): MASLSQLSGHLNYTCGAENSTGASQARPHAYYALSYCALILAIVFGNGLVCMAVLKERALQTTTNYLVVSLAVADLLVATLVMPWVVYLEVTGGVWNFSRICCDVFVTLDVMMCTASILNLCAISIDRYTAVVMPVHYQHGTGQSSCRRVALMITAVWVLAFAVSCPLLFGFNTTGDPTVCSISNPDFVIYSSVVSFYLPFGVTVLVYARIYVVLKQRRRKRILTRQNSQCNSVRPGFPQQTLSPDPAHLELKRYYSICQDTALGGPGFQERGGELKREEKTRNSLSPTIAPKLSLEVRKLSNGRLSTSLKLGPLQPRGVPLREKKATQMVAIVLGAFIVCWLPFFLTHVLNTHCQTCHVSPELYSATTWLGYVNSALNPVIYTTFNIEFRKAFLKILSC
METRIC_NAME: pKi
Give bare numbers, as −log10 of the molar value.

input: API: value(readout= pKi, system= D(3) dopamine receptor (Homo sapiens), query= Oc1ccc([C@H]2CN[C@@H]3CCc4cc(O)c(O)cc4[C@H]3C2)cc1 (racemic) )
output: 7.30

Continuing:
input: API: value(readout= pKi, system= D(3) dopamine receptor (Homo sapiens), query= Oc1ccc2c(c1O)C[C@@H](c1ccccc1)[C@@H]1CCNC[C@@H]21 )
output: 6.68

Reference source: ChEMBL document CHEMBL2157876
